Assay system Trypsin (Bos taurus, UniProt P00760); read-out recorded as pKi.
pKi: −log10 of the molar value.
parameter_measured: pKi

compound	value_reported
CCOC(=O)CN[C@@H](C(=O)N1CCC[C@H]1C(=O)NCc1ccc(/C(N)=N/C(=O)OCC2CCCCC2)s1)C(c1ccccc1)c1ccccc1 [Prodrug 4]	4.68
CCOC(=O)CN[C@@H](C(=O)N1CCC[C@H]1C(=O)NCc1ccc(/C(N)=N/OC(C)=O)s1)C(c1ccccc1)c1ccccc1 [Prodrug 2]	4.67
CCOC(=O)CN[C@@H](C(=O)N1CCC[C@H]1C(=O)NCc1ccc(/C(N)=N/O)s1)C(c1ccccc1)c1ccccc1 [Prodrug 3]	5.26
CCOC(=O)CN[C@@H](C(=O)N1CCC[C@H]1C(=O)NCc1ccc(/C(N)=N/C(=O)OCC(C)C)s1)C(c1ccccc1)c1ccccc1 [Prodrug 1]	6.17

====

assay: Effect of composition of food on bioavailability of Drug A in dog; format: in vivo; details: dog, plasma, po, dogs, oral, after intake of starch
parameter_measured: bioavailability (%)

structure_string	value_reported
N=C(N)c1ccc(CNC(=O)[C@@H]2CCCN2C(=O)[C@H](NCC(=O)O)C(c2ccccc2)c2ccccc2)s1	41

====

Experiment: Effect of composition of food on bioavailability of Drug A in dog
Format: in vivo
Details: dog, plasma, po, dogs, in fasting state
Description: A solution in which 5 g of starch dispersed in 40 ml of water, 40 ml of egg albumin, and a solution in which 5 g of Gelucire® (44/14) dispersed in 40 ml of water, respectively, were fed to two dogs […] before administration of Drug A. These dogs (8–11 kg, Covance Research Product corporation, MI, U.S.A) were bred in a standard laboratory cage, adjusted for a temperature (22±3° C.) and humidity (50±20%), with feed and water available ad libitum. […]

structure_string	bioavailability
N=C(N)c1ccc(CNC(=O)[C@@H]2CCCN2C(=O)[C@H](NCC(=O)O)C(c2ccccc2)c2ccccc2)s1	43%

====

Test: Effect of composition of food on bioavailability of Drug A in dog
Format: in vivo
Conditions: dog, plasma, po, dogs, oral, after intake of Gelucire (lipid)
Protocol: A solution in which 5 g of starch dispersed in 40 ml of water, 40 ml of egg albumin, and a solution in which 5 g of Gelucire® (44/14) dispersed in 40 ml of water, respectively, were fed to two dogs […] before administration of Drug A. These dogs (8–11 kg, Covance Research Product corporation, MI, U.S.A) were bred in a standard laboratory cage, adjusted for a temperature (22±3° C.) and humidity (50±20%), with feed and water available ad libitum. […]

compound	bioavailability
N=C(N)c1ccc(CNC(=O)[C@@H]2CCCN2C(=O)[C@H](NCC(=O)O)C(c2ccccc2)c2ccccc2)s1 [Drug A]	20%

These data points were gathered from patent US7097967B2.
